Could you please report measured melting point for the items listed next?

Worked examples, 3 compounds total:
compound="CCOC(=O)c1cn(-c2cc(=O)n(-c3ccccc3)nc2C(=O)OC)nn1 [Compound 7]" recorded_result="165 to 170 °C"
compound="COc1ccc(Oc2cc(=O)n(-c3ccccc3)nc2-c2nc[nH]n2)cc1 [Compound 14]" recorded_result="253 to 257 °C"
compound="C=CCNc1cc(=O)n(-c2ccc(Cl)cc2)nc1-c1nc[nH]n1 [Compound 70]" recorded_result="212 to 215 °C"

Now let's try a different one.
Form field: reported melting point of CN1CCN(c2ccc(Nc3cc(=O)n(-c4ccc(Cl)cc4)nc3-c3nc[nH]n3)cc2)CC1 [Compound 63]
227 to 229 °C
